Source of measurements: ChEMBL document CHEMBL1138098

Assign Activity to each entry below.
- Tested on: JAR
- PROCEDURE_DETAILS: Induction of PIG3 production in JAR cells at 3.3 uM
- Type: functional, Homo sapiens

Look up Activity: CN1CCN(CCCN2C(=O)[C@H](c3ccc(Cl)cc3)N(Cc3ccc(Cl)cc3N)C(=O)c3cc(I)ccc32)CC1
198 ng/mg

Look up Activity: CN1CCN(CCCCN2C(=O)[C@H](c3ccc(Cl)cc3)N(Cc3ccc(Cl)cc3N)C(=O)c3cc(I)ccc32)CC1
125 ng/mg

Look up Activity: Nc1cc(Cl)ccc1CN1C(=O)c2cc(I)ccc2N(CCCN2CCOCC2)C(=O)[C@@H]1c1ccc(Cl)cc1
184 ng/mg

Look up Activity: C[C@H](c1cc(O)c(Cl)cc1N)N1C(=O)c2cc(I)ccc2N(CCN2CCOCC2)C(=O)[C@@H]1c1ccc(Cl)cc1
54 ng/mg

Look up Activity: Nc1cc(Cl)ccc1CN1C(=O)c2cc(I)ccc2N(CCCCC(=O)O)C(=O)[C@@H]1c1ccc(Cl)cc1
74 ng/mg

Look up Activity: CC(c1ccc(Cl)cc1N)N1C(=O)c2cc(I)ccc2N(CCCCC(=O)O)C(=O)[C@@H]1c1ccc(Cl)cc1 (stereo partly drawn)
77 ng/mg

Look up Activity: CC(c1ccc(Cl)cc1)N1C(=O)c2cc(I)ccc2N(CCCCC(=O)O)C(=O)[C@@H]1c1ccc(Cl)cc1 (stereo partly drawn)
79.7 ng/mg

Look up Activity: CN(C)CCCCN1C(=O)[C@H](c2ccc(Cl)cc2)N(Cc2ccc(Cl)cc2N)C(=O)c2cc(I)ccc21
79 ng/mg
